Reported IC50 by item:
Molecular target: recombinant human GALK1 (Homo sapiens, UniProt P51570)
Sequence (P51570 whole entry): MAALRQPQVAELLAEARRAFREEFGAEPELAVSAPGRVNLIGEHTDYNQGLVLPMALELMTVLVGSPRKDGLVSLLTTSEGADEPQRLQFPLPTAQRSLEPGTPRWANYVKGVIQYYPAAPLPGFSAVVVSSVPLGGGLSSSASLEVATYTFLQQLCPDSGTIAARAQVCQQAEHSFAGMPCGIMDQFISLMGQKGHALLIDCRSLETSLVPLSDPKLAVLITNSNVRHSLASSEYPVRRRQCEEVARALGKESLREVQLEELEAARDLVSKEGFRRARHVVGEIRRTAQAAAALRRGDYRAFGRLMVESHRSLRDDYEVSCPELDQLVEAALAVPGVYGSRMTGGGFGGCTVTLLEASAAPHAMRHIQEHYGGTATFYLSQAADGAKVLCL
Test: hGALK1 biochemical activity assay (Kinase-Glo Plus, ATP depletion)
Conditions: recombinant human GALK1, Kinase-Glo Plus ATP depletion; bracketed figure in the cell, e.g. (−1.2), is not defined in the text shown; read-out: hGALK
Form entry: value (µM) — number only.

Use these answered entries as a reference point.
COc1ccc(Cl)c(C2N=C(Nc3nc4ccccc4o3)NC(C)=C2C(=O)Nc2nncs2)c1 (centres unmarked): 13.7
CC(C)CC1=C(C(=O)Nc2nncs2)C(c2ccccc2Cl)N=C(Nc2nc3ccccc3o2)N1 (centres unmarked): 5.44
O/N=C1\CCCC2=C1C(c1ccccc1Cl)N=C(Nc1nc3ccccc3o1)N2 (centres unmarked): 17.2

Lab book: IC50 of CC1=C(C(=O)Nc2nncs2)C(c2ccc(Cl)cc2Cl)N=C(Nc2nc3ccccc3o2)N1 (centres unmarked) noted as 4.85

Field IC50 (entry O=C1CC(C(=O)Nc2nncs2)CC2=C1C(c1ccccc1Cl)N=C(Nc1nc3ccccc3o1)N2 (centres unmarked) ) reads 6.85

Please fill in: IC50 reported for O=C(Nc1nncs1)C1=C(C(F)(F)F)NC(Nc2nc3ccccc3o2)=NC1c1ccccc1Cl (centres unmarked) = 13.7

IC50 recorded for this molecule, O=C(Nc1nncs1)C1=C(c2cnccn2)NC(Nc2nc3ccccc3o2)=NC1c1ccccc1Cl (centres unmarked) , is 3.85

Consider `CC1=C(C(=O)Nc2nncs2)C2(CCSCC2)N=C(Nc2nc3ccccc3o2)N1` . Its measured IC50 is 8.63

These data points were gathered from patent US20230158025A1.
